// provenance: paper PMC5297809

Parameter: melting point. Scope: all listed entries.
Form entry: value (°C) — number only.

Q: Check the records and state melting point for "O=C1N=C(Nc2cccc3ccccc23)SC1=Cc1cccc(Cl)c1"
A: 140

Q: Check the records and state melting point for "O=C1N=C(Nc2cccc3ccccc23)SC1=Cc1csc(-c2ccccc2)n1"
A: 312

Q: Check the records and state melting point for "C=CCNC1=NC(=O)C(=Cc2ccc(O)c(OC)c2)S1"
A: 240

Q: Check the records and state melting point for "C=CCNC1=NC(=O)C(=Cc2csc(-c3ccccc3)n2)S1"
A: 339

Q: Check the records and state melting point for "O=C1N=C(Nc2ccccc2)SC1=Cc1coc2ccc(Cl)cc2c1=O"
A: 356

Q: Check the records and state melting point for "C=CCNC1=NC(=O)C(=Cc2ccc(Cl)cc2Cl)S1"
A: 238

====

Parameter: RM0. Scope: all listed entries.
- methodDescription: lipophilicity by RP-TLC with PCA
- Format: physicochemical
- runConditions: RP-TLC C18, water-i-propanol 45-65%; intercept, RM extrapolated to 0% organic modifier (lipophilicity)
# answer = number (no unit)

Reference set, count: 4
C=CCNC1=NC(=O)C(=Cc2coc3ccc(Cl)cc3c2=O)S1	2.2869
O=C1N=C(Nc2cccc3ccccc23)SC1=Cc1csc(-c2ccccc2)n1	3.287
C=CCNC1=NC(=O)C(=Cc2cccc(Cl)c2)S1	2.0801
O=C1N=C(Nc2cccc3ccccc23)SC1=Cc1ccc([N+](=O)[O-])cc1	2.7789

Q: Check the records and state RM0 for "C=CCNC1=NC(=O)C(=Cc2csc(-c3ccccc3)n2)S1"
A: 2.2119

Q: Check the records and state RM0 for "O=C1N=C(Nc2ccccc2)SC1=Cc1ccc(Cl)cc1Cl"
A: 2.4679

Q: Check the records and state RM0 for "C=CCNC1=NC(=O)C(=Cc2ccc([N+](=O)[O-])cc2)S1"
A: 1.7553

====

parameterMeasured: melting point

Q: Check the records and state melting point for "O=C1N=C(Nc2ccccc2)SC1=Cc1csc(-c2ccccc2)n1"
A: 287 to 289 °C

====

- methodDescription: lipophilicity by RP-TLC with PCA
- Type: physicochemical
- Set-up: key: PCA scores of compounds computed from Rf data
- runConditions: score of first principal component of Rf data; low P1 = highly lipophilic
# strict inequality: P1 < -0.2 yields yes, everything else yields no

Recorded results for 6 compounds are shown here.
O=C1N=C(Nc2cccc3ccccc23)SC1=Cc1ccc(Cl)cc1Cl	yes
C=CCNC1=NC(=O)C(=Cc2ccc([N+](=O)[O-])cc2)S1	no
O=C1N=C(Nc2cccc3ccccc23)SC1=Cc1cccc(Cl)c1	yes
O=C1N=C(Nc2ccccc2)SC1=Cc1csc(-c2ccccc2)n1	no
O=C1N=C(Nc2cccc3ccccc23)SC1=Cc1csc(-c2ccccc2)n1	yes
O=C1N=C(Nc2cccc3ccccc23)SC1=Cc1ccc([N+](=O)[O-])cc1	yes

Q: Criterion: P1 strictly below -0.2. Is it met by "O=C1N=C(Nc2ccccc2)SC1=Cc1coc2ccc(Cl)cc2c1=O" ?
A: no

Q: Criterion: P1 strictly below -0.2. Is it met by "O=C1N=C(Nc2ccccc2)SC1=Cc1ccc([N+](=O)[O-])cc1" ?
A: no

Q: Criterion: P1 strictly below -0.2. Is it met by "O=C1N=C(Nc2cccc3ccccc23)SC1=Cc1coc2ccc(Cl)cc2c1=O" ?
A: yes

Q: Criterion: P1 strictly below -0.2. Is it met by "C=CCNC1=NC(=O)CS1" ?
A: no
